Let's look at some compounds and their measured pIC50.
target.or.system: Sodium channel protein type 9 subunit alpha (Homo sapiens)
Sequence (Q15858 whole entry): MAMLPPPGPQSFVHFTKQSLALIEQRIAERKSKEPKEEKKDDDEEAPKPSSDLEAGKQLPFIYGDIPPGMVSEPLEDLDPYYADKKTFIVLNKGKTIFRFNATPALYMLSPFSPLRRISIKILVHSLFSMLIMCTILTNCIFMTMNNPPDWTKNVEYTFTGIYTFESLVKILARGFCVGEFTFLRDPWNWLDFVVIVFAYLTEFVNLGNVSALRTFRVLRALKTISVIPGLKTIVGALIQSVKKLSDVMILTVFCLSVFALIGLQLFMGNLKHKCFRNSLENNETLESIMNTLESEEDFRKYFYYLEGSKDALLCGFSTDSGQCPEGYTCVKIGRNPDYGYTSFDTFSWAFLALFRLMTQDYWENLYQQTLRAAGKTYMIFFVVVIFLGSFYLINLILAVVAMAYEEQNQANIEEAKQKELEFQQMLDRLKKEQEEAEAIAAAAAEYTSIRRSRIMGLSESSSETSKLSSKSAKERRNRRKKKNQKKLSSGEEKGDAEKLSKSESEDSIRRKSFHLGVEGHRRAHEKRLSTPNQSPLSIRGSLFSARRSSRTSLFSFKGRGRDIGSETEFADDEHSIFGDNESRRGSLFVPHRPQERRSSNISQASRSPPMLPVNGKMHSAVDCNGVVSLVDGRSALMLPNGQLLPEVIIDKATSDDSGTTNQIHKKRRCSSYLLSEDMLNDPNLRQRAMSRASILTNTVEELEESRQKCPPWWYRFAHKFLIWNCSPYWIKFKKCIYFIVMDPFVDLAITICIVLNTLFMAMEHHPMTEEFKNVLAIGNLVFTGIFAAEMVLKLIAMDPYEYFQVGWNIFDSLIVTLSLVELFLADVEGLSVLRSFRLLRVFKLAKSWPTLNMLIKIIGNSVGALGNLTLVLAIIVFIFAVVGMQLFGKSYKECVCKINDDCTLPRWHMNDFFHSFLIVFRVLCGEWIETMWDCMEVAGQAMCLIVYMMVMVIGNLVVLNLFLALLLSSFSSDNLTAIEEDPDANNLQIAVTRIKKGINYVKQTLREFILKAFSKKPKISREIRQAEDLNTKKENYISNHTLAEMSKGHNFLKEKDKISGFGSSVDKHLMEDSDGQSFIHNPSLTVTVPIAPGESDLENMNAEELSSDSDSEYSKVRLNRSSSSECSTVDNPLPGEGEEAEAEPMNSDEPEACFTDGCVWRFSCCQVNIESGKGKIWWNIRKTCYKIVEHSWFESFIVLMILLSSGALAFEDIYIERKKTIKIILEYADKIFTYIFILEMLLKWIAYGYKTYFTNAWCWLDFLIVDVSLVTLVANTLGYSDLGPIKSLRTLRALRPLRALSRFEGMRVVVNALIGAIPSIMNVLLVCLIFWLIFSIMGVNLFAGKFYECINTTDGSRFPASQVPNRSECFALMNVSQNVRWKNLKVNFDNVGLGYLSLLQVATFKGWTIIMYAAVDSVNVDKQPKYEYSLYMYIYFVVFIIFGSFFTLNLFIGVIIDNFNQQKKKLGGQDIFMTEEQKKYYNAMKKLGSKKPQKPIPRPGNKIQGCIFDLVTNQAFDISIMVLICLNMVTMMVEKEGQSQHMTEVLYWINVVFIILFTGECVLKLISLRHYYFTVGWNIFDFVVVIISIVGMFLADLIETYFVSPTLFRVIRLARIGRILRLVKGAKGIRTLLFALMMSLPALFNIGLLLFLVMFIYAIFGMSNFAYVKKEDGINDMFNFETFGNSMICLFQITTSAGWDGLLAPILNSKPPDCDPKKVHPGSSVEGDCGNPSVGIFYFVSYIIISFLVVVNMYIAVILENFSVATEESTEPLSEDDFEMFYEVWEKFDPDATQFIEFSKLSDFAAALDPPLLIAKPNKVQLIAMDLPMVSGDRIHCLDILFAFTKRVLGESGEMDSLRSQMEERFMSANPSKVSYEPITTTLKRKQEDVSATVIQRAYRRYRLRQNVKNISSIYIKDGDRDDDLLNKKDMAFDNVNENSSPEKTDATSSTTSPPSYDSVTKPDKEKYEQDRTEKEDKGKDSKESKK
assay.notes: FLIPR Assay: […] Sodium Dye Assay with KCl: Cells were prepared by plating the recombinant HEK293 cells or other host cells expressing either recombinant or non-recombinant, native, Nav1.7 alpha subunit, alone or in combination with various beta and gamma subunits at a density of ~40,000 cells/well into a 96-well black, clear-bottom, PDL-coated plate. The assay can be adapted to 384-well or 1,536-well format, if desired, using proportionately fewer cells and less media. The plate was then incubated in growth media, with or without selective antibiotic, overnight at 37 C. at 5% CO2, 95% humidity, in preparation for the assay. For counter-screens of other voltage-gated sodium channels, the procedure was very similar, though optimal densities of cells, media and subsequent assay components can be fine-tuned for the particular cell line or isoform. […] Membrane Potential Assay with KCl: Cells are prepared by plating the recombinant HEK293 cells.
pIC50: −log10 of the molar value.

Field: example entries. Status: answers known.
>>> result("N#Cc1nc(-c2ccc(Oc3ccc(OC(F)(F)F)cc3)cc2)nc(N2CCOCC2)n1")
"< 4.70"
>>> result("NC(=O)c1nc(N[C@H]2CCNC2=O)nc(-c2ccc(Oc3ccc(C(F)(F)F)cn3)cc2)n1")
5.75

Alright, here's another compound for you.
[in] Dear colleague, please send me the reported pIC50 for `N#Cc1nc(N[C@H]2CCNC2=O)nc(-c2ccc(Oc3ccc(C(F)(F)F)cn3)cc2)n1` when you can.
[out] < 4.70
